assayed_system: GSK3b (Homo sapiens, UniProt P49841)
Construct: purchased Caliper Life Sciences
Sequence (P49841 whole entry, species assumed): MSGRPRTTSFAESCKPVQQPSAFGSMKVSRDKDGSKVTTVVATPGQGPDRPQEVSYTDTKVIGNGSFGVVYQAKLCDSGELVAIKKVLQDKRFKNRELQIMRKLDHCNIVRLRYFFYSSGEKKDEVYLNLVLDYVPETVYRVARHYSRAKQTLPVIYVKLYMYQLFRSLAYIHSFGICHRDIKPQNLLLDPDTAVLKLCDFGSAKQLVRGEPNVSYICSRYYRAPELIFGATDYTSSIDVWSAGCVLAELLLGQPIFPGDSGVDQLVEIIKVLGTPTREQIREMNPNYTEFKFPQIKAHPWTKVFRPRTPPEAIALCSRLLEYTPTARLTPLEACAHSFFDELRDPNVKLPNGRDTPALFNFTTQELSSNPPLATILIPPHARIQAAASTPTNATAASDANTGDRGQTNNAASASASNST
test: Desktop Profiler kinase panel, GSK3b
Assay type: biochemical
condition_label: 10 micromolar concentration of the compound; read-out: Percent Inhibition GSK3b
inhibition at 10 µM values for the molecules below.

The following molecules have reported results that may help.
| molecular_string | inhibition at 10 µM |
| --- | --- |
| O=c1[nH]c2nccc(NCc3ccccc3)c2c2ccccc12 | 50 to 70% |
| Clc1ccc2c(Nc3cccc(Br)c3)nc3ncccc3c2c1 | 50 to 70% |
| NC(=O)c1ccc(Oc2ccc3c(=O)[nH]c4ncccc4c3c2)cc1 | 70 to 90% |

// recorded inhibition at 10 µM for `O=c1[nH]c2ncccc2c2cc(Nc3cccc(F)c3)ccc12` : 70 to 90%

// recorded inhibition at 10 µM for `CC(=O)Nc1ccc(Oc2ccc3c(=O)[nH]c4ncccc4c3c2)cc1` : > 90%

* * *

assayed_system: GST-Aurora A (Homo sapiens, UniProt O14965)
Construct: N-terminal GST fusion with full length Aurora A (1-403 amino acids)
Sequence (O14965 1-403): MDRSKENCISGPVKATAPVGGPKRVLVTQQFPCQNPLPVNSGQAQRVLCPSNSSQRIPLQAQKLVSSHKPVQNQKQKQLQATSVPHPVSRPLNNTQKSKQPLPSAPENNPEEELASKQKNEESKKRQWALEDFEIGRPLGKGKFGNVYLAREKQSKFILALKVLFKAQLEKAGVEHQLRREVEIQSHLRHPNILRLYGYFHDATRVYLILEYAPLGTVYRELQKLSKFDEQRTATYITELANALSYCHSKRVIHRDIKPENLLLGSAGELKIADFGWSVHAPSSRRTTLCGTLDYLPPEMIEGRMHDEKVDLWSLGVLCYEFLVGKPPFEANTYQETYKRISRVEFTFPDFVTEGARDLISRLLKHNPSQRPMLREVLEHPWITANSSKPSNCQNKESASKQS
test: Aurora A IC50, Caliper LC3000 mobility shift assay
condition_label: LC3000 method; 15 uM ATP (the KM value); read-out: Aurora Kinase A Activity (IC50)
IC50 values for the molecules below.

| molecule | readout_value |
| --- | --- |
| O=C(Nc1ccc(Nc2ccnc3[nH]c(=O)c4c(C(=O)O)cccc4c23)cc1)c1ccccc1 | 0.011 to 0.1 µM |
| CC(=O)Nc1ccc(C#Cc2ccnc3[nH]c(=O)c4ccccc4c23)cc1 | > 0.1 µM |
| O=C(Cc1ccc(Nc2ccnc3[nH]c(=O)c4ccccc4c23)cc1)Nc1ccccc1 | 0.011 to 0.1 µM |
| CCN(Cc1ccccc1)c1ccc2c(=O)[nH]c3ncccc3c2c1 | > 0.1 µM |
| O=C(CN1CCC(Nc2ccnc3[nH]c(=O)c4ccccc4c23)CC1)Nc1ccccc1 | 0.011 to 0.1 µM |
| O=c1[nH]c2ncccc2c2cc(NCc3ccc(F)cc3C(F)(F)F)ccc12 | > 0.1 µM |

// recorded IC50 for `O=c1[nH]c2ncccc2c2cc(NCc3ccc(Cl)cc3)ccc12` : > 0.1 µM

// recorded IC50 for `O=C(CC(F)(F)F)Nc1ccc(Nc2ccnc3[nH]c(=O)c4ccccc4c23)cc1` : < 0.011 µM

// recorded IC50 for `O=c1[nH]c2ncccc2c2cc(Nc3cccc(F)c3)ccc12` : > 0.1 µM

// recorded IC50 for `COc1ccc(CCNc2ccc3c(=O)[nH]c4ncccc4c3c2)cc1` : > 0.1 µM

// recorded IC50 for `COc1cc2c(=O)[nH]c3nccc(Nc4ccc(Cl)cc4)c3c2cc1OC` : 0.011 to 0.1 µM

// recorded IC50 for `O=C(Cn1cccn1)Nc1ccc(Nc2ccnc3[nH]c(=O)c4ccccc4c23)cc1` : 0.011 to 0.1 µM

// recorded IC50 for `O=C(Nc1ccc(Nc2ccnc3[nH]c(=O)c4ccccc4c23)c(F)c1)c1ccccc1` : < 0.011 µM

// recorded IC50 for `O=c1[nH]c2ncccc2c2cc(NCc3cccc(C(F)(F)F)c3)ccc12` : 0.011 to 0.1 µM

* * *

inhibition at 10 µM values for the compounds below.
assayed_system: FYN (Homo sapiens, UniProt P06241)
Construct: purchased Caliper Life Sciences
Sequence (P06241 whole entry, species assumed): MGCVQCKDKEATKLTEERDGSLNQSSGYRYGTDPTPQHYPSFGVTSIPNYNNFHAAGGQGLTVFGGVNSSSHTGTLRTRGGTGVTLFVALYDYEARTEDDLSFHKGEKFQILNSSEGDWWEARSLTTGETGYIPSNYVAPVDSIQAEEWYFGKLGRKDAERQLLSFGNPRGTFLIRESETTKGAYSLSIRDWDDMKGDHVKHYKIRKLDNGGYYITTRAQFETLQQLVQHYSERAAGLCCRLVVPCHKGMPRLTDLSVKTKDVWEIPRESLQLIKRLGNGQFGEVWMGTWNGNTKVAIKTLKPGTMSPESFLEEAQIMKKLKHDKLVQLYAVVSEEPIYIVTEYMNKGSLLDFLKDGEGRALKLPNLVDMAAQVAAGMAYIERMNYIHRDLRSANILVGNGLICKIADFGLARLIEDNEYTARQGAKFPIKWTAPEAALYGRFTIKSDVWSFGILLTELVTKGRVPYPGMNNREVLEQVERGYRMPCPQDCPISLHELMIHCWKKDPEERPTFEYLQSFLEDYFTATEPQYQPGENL
test: Desktop Profiler kinase panel, FYN
Type: biochemical
condition_label: 10 micromolar concentration of the compound; read-out: Percent Inhibition FYN
Description: The Aurora assays described here are performed on two Caliper Life Sciences systems: the LC3000 and the Desktop Profiler. These provide data on enzyme activity via measurement of the relative amounts of phosphorylated or unphosphorylated fluorescently labelled substrate peptide at the end of an enzymatic reaction. […] Reading of the plate in the Profiler is identical to the LC3000, and the ratio between substrate and product peaks provides the activity of the enzyme in that well. […]

| molecular_string | assayed_system | inhibition at 10 µM |
| --- | --- | --- |
| O=c1[nH]c2ncc(Nc3ccccc3)cc2c2ccccc12 | FYN (Homo sapiens, UniProt P06241) | 50 to 70% |

Here `Clc1nc2nccc(Oc3ccccc3)c2c2ccccc12` was tested on FYN (Homo sapiens, UniProt P06241), and its inhibition at 10 µM came to 50 to 70%

Here `O=c1[nH]c2ncccc2c2cc(Nc3cccc(F)c3)ccc12` was tested on FYN (Homo sapiens, UniProt P06241), and its inhibition at 10 µM came to 70 to 90%

Here `O=c1[nH]c2ncc(NCc3ccccc3)cc2c2ccccc12` was tested on FYN (Homo sapiens, UniProt P06241), and its inhibition at 10 µM came to > 90%

Here `NC(=O)c1ccc(Oc2ccc3c(=O)[nH]c4ncccc4c3c2)cc1` was tested on FYN (Homo sapiens, UniProt P06241), and its inhibition at 10 µM came to > 90%

Here `CC(=O)Nc1ccc(Oc2ccc3c(=O)[nH]c4ncccc4c3c2)cc1` was tested on FYN (Homo sapiens, UniProt P06241), and its inhibition at 10 µM came to > 90%

Here `O=c1[nH]c2nccc(NCc3ccccc3)c2c2ccccc12` was tested on FYN (Homo sapiens, UniProt P06241), and its inhibition at 10 µM came to 70 to 90%

Here `Clc1nc2nccc(NCc3ccccc3)c2c2ccccc12` was tested on FYN (Homo sapiens, UniProt P06241), and its inhibition at 10 µM came to 70 to 90%

* * *

IC50 values for the compounds below.
assayed_system: GST-Aurora A (Homo sapiens)
Construct: N-terminal GST fusion with full length Aurora A (1-403 amino acids)
test: Aurora A IC50, Caliper LC3000 mobility shift assay
condition_label: LC3000 method; 15 uM ATP (the KM value); read-out: Aurora Kinase A Activity (IC50)

| molecular_string | IC50 |
| --- | --- |
| O=C(Nc1ccc(CNc2ccnc3[nH]c(=O)c4ccccc4c23)cc1)c1ccccc1 | 11 to 100 nM |

// recorded IC50 for `O=C(c1ccc(F)c(F)c1)N1CCC(CNc2ccnc3[nH]c(=O)c4ccccc4c23)CC1` : > 100 nM

// recorded IC50 for `CN1CCN(CCNC(=O)c2ccc3c(c2)c(=O)[nH]c2nccc(Nc4ccc(NC(=O)c5ccccc5)cc4)c23)CC1` : 11 to 100 nM

// recorded IC50 for `CN(C(=O)CN1CCC(Nc2ccnc3[nH]c(=O)c4ccccc4c23)CC1)c1ccccc1` : > 100 nM

* * *

assayed_system: AKT2 (Homo sapiens)
Construct: purchased Caliper Life Sciences
Sequence (P31751 whole entry, species assumed): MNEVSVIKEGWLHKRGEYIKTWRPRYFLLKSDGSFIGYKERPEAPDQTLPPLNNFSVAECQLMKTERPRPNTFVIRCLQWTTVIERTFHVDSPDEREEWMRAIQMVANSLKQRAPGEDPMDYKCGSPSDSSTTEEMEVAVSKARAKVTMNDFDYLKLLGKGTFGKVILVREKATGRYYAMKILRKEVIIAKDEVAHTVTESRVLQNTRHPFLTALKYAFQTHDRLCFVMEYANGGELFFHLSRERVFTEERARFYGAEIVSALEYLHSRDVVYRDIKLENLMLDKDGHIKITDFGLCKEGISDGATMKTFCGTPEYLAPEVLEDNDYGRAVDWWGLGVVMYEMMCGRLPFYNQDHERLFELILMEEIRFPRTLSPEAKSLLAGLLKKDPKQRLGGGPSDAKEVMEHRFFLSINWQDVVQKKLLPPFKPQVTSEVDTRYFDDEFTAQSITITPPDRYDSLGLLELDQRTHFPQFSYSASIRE
test: Desktop Profiler kinase panel, AKT2
Type: biochemical
condition_label: 10 micromolar concentration of the compound; read-out: Percent Inhibition AKT2
measurement_name: inhibition at 10 µM

| molecular_string | inhibition at 10 µM |
| --- | --- |
| O=c1[nH]c2nccc(NCc3ccccc3)c2c2ccccc12 | 50 to 70% |
| O=c1[nH]c2ncccc2c2cc(Nc3cccc(F)c3)ccc12 | > 90% |
| CC(=O)Nc1ccc(Oc2ccc3c(=O)[nH]c4ncccc4c3c2)cc1 | > 90% |

Next compound, please.
// recorded inhibition at 10 µM for `NC(=O)c1ccc(Oc2ccc3c(=O)[nH]c4ncccc4c3c2)cc1` : 50 to 70%

* * *

assayed_system: GST-Aurora A (Homo sapiens, UniProt O14965)
Construct: N-terminal GST fusion with full length Aurora A (1-403 amino acids)
Sequence (O14965 1-403): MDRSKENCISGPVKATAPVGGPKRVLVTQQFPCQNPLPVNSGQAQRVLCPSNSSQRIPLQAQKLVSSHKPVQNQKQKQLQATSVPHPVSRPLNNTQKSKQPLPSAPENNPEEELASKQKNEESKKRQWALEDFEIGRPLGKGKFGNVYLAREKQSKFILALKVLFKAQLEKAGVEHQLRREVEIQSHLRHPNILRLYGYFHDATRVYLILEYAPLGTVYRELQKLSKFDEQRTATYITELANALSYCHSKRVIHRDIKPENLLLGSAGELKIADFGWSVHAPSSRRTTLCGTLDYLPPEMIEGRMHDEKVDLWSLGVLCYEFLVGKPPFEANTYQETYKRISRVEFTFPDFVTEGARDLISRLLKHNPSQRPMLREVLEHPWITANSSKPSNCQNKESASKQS
test: Aurora A IC50, Caliper LC3000 mobility shift assay
condition_label: LC3000 method; 15 uM ATP (the KM value); read-out: Aurora Kinase A Activity (IC50)
pIC50: −log10 of the molar value.
measurement_name: pIC50

The following compounds have reported results that may help.
| compound | pIC50 |
| --- | --- |
| CCOC(=O)CCCNc1ccc2c(=O)[nH]c3ncccc3c2c1 [Compound 460] | < 7.00 |
| O=C(Nc1ccc(Nc2ccnc3[nH]c(=O)c4ccccc4c23)cc1)c1ccc(Cl)cc1Cl [Compound 399] | > 7.96 |
| COc1cccc(C#Cc2ccnc3[nH]c(=O)c4ccccc4c23)c1 [Example 160] | < 7.00 |

// recorded pIC50 for O=C(Nc1ccc(Nc2ccnc3[nH]c(=O)c4ccccc4c23)cc1)c1cccnc1 [Compound 344] : 7.00 to 7.96
